Target: full length AKT E17K (Homo sapiens, UniProt P31749, E17K)
Construct: host or cells: HEK-293 (ATCC CRL-1573)
Sequence (P31749 whole entry E17K): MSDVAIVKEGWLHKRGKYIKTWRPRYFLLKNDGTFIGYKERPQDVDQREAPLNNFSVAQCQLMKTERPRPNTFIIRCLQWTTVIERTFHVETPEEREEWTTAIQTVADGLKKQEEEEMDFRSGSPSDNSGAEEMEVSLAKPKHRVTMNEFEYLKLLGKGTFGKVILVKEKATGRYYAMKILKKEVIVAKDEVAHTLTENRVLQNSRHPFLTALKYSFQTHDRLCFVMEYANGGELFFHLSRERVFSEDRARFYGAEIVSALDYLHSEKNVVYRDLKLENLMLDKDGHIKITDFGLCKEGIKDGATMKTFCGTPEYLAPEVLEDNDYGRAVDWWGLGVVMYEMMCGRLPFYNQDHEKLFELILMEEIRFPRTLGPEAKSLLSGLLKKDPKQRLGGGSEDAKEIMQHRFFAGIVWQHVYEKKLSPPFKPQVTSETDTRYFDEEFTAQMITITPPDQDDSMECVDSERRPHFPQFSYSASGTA
Assay: NanoBRET Target Engagement (TE) Intracellular Kinase Assay
Assay type: cell-based
pEC50: −log10 of the molar value.
readout label: pEC50

Record COc1c(NCc2ccc(-n3c(-c4cccnc4N)nc4cccnc43)cc2)c(=O)c1=O [Example 2] ; system full length AKT E17K (Homo sapiens, UniProt P31749, E17K); pEC50 = < 6.22

So the reported pEC50 for COc1c(NC2CCN(Cc3ccc(-n4c(-c5cccnc5N)nc5cccnc54)cc3)CC2)c(=O)c1=O [Example 3] , on full length AKT E17K (Homo sapiens, UniProt P31749, E17K), turned out to be 7.22 to 7.82

The molecule Nc1ncccc1-c1nc2ccc(-c3ccccc3)nc2n1-c1ccc(CN2CCC(Nc3c(S)c(=O)c3=O)CC2)cc1 [Example 44] , when measured on full length AKT E17K (Homo sapiens, UniProt P31749, E17K), yielded pEC50 of 6.22 to 7.22

The value of pEC50 recorded for COc1c(N2[C@H](C)CN(Cc3ccc(-n4c(-c5cccnc5N)nc5ccc(-c6ccccc6)nc54)cc3)C[C@H]2C)c(=O)c1=O [Example 69] when tested on full length AKT E17K (Homo sapiens, UniProt P31749, E17K) reads 6.22 to 7.22

# value of pEC50, full length AKT E17K (Homo sapiens, UniProt P31749, E17K), item COc1c(N2CCCC3(CCN(Cc4ccc(-n5c(-c6cccnc6N)nc6ccc(-c7ccccc7)nc65)cc4)CC3)C2)c(=O)c1=O [Example 31] = 7.22 to 7.82

# value of pEC50, full length AKT E17K (Homo sapiens, UniProt P31749, E17K), item COc1c(N[C@H]2CCCN(Cc3ccc(-n4c(-c5cccnc5N)nc5ccc(-c6ccccc6)nc54)cc3)C2)c(=O)c1=O [Example 29] = 6.22 to 7.22

Value sought: pEC50, system full length AKT E17K (Homo sapiens, UniProt P31749, E17K), item COc1c(N2CCN(Cc3ccc(-n4c(-c5cccnc5N)nc5cccnc54)cc3)CC2)c(=O)c1=O [Example 1] . Result: < 6.22

Observed pEC50, full length AKT E17K (Homo sapiens, UniProt P31749, E17K), COc1c(N2CC3(CN(Cc4ccc(-n5c(-c6cccnc6N)nc6ccc(-c7ccccc7)nc65)cc4)C3)C2)c(=O)c1=O [Example 41] : < 6.22

Summary: COc1c(N2CCN(Cc3ccc(-n4c(-c5cccnc5N)nc5ccc(-c6ccccc6)nc54)cc3)C[C@@H]2C)c(=O)c1=O [Example 36] , full length AKT E17K (Homo sapiens, UniProt P31749, E17K), pEC50 = 7.22 to 7.82

The measured pEC50 that CCOc1c(N2CCN(Cc3ccc(-n4c(-c5cccnc5N)nc5ccc(-c6ccccc6)nc54)cc3)CC2)c(=O)c1=O [Example 24] showed for full length AKT E17K (Homo sapiens, UniProt P31749, E17K) is 6.22 to 7.22

Record Nc1ncccc1-c1nc2ccc(-c3ccccc3)nc2n1-c1ccc(CN2CCC(N3CCCSc4c3c(=O)c4=O)CC2)cc1 [Example 85] ; system full length AKT E17K (Homo sapiens, UniProt P31749, E17K); pEC50 = 6.22 to 7.22

pEC50 for full length AKT E17K (Homo sapiens, UniProt P31749, E17K) with input COc1c(N2C[C@H]3CN(Cc4ccc(-n5c(-c6cccnc6N)nc6ccc(-c7ccccc7)nc65)cc4)C[C@H]3C2)c(=O)c1=O [Example 86] equals 7.22 to 7.82

pEC50 value, target or system full length AKT E17K (Homo sapiens, UniProt P31749, E17K), for COc1c(N2CCN(Cc3ccc(-n4c(-c5cccnc5N)nc5ccc(-c6ccccc6)nc54)cc3)CC23CC3)c(=O)c1=O [Example 37] : 7.22 to 7.82

With full length AKT E17K (Homo sapiens, UniProt P31749, E17K) as the test system, CC(C)Oc1c(N2CCN(Cc3ccc(-n4c(-c5cccnc5N)nc5ccc(-c6ccccc6)nc54)cc3)CC2)c(=O)c1=O [Example 25] showed pEC50 of < 6.22

pEC50 of COc1c(N2CCN(Cc3ccc(-n4c(-c5cccnc5N)nc5cc(-c6ccccc6)cnc54)cc3)CC2)c(=O)c1=O [Example 9] , assay on full length AKT E17K (Homo sapiens, UniProt P31749, E17K), is 6.22 to 7.22

Entry COc1c(N2CCC3(CN(Cc4ccc(-n5c(-c6cccnc6N)nc6ccc(-c7ccccc7)nc65)cc4)C3)C2)c(=O)c1=O [Example 42] , tested on full length AKT E17K (Homo sapiens, UniProt P31749, E17K), has a reported pEC50 of 7.22 to 7.82

CCSc1c(N(CC)C2CCN(Cc3ccc(-n4c(-c5cccnc5N)nc5ccc(-c6ccccc6)nc54)cc3)CC2)c(=O)c1=O [Example 93] tested on full length AKT E17K (Homo sapiens, UniProt P31749, E17K) gave pEC50: 7.22 to 7.82

Reading of pEC50 for COc1c(N2CCN(Cc3ccc(-n4c(-c5cccnc5N)nc5ccc(-c6ccccc6)nc54)cc3)C[C@@H]2CO)c(=O)c1=O [Example 79] with full length AKT E17K (Homo sapiens, UniProt P31749, E17K): 6.22 to 7.22

Record for COc1c(N2CCC3(CCN(Cc4ccc(-n5c(-c6cccnc6N)nc6ccc(-c7ccccc7)nc65)cc4)CC3)C2)c(=O)c1=O [Example 54] under target or system full length AKT E17K (Homo sapiens, UniProt P31749, E17K): pEC50 reported as 7.22 to 7.82

Recorded pEC50 for CC(C)Oc1c(NC2CCN(Cc3ccc(-n4c(-c5cccnc5N)nc5ccc(-c6ccccc6)nc54)cc3)CC2)c(=O)c1=O [Example 11] on full length AKT E17K (Homo sapiens, UniProt P31749, E17K) was 7.22 to 7.82

full length AKT E17K (Homo sapiens, UniProt P31749, E17K) assay, molecule CCOc1c(N2CCC3(CC2)CN(Cc2ccc(-n4c(-c5cccnc5N)nc5ccc(-c6ccccc6)nc54)cc2)C3)c(=O)c1=O [Example 59] , recorded pEC50 = 7.22 to 7.82

GET /values?item= Nc1ncccc1-c1nc2ccc(-c3ccccc3)nc2n1-c1ccc(CN2CCC(Nc3c(OC4CCCC4)c(=S)c3=S)CC2)cc1 [Example 16] &system= full length AKT E17K (Homo sapiens, UniProt P31749, E17K) returns pEC50: 6.22 to 7.22

Lab note: molecule Nc1ncccc1-c1nc2ccc(-c3ccccc3)nc2n1-c1ccc(CN2CCN(c3c(O)c(=O)c3=O)CC2)cc1 [Example 22] tested on full length AKT E17K (Homo sapiens, UniProt P31749, E17K); recorded pEC50 was < 6.22

Observed pEC50, full length AKT E17K (Homo sapiens, UniProt P31749, E17K), CSc1c(N(C2CC2)C2CCN(Cc3ccc(-n4c(-c5cccnc5N)nc5ccc(-c6ccccc6)nc54)cc3)CC2)c(=O)c1=O [Example 95] : 7.22 to 7.82

Recorded pEC50 for COc1c(N2CCC(NCc3ccc(-n4c(-c5cccnc5N)nc5ccc(-c6ccccc6)nc54)cc3)CC2)c(=O)c1=O [Example 77] on full length AKT E17K (Homo sapiens, UniProt P31749, E17K) was 7.22 to 7.82

FYI, the data here is from patent US20260365646A1.
